assay_info: AUC (0 to t) in ICR mouse at 1 mg/kg, iv measured upto 24 hrs by LC-MS/MS analysis
Assay type: ADME, organism-based
condition_description: in vivo
observable: AUC(0-t) at 24 h
Quote the value and follow it with the unit of measurement.

Entry CC(C)(O)c1csc(S(=O)(=O)NC(=O)Nc2c(-c3cccc(Cl)c3Cl)ccc3c2CCC3)c1 , AUC(0-t) at 24 h reported as 2610 ng·h/mL

###

assay_info: Half life in ICR mouse at 1 mg/kg, iv measured upto 24 hrs by LC-MS/MS analysis
Format: ADME, organism-based
condition_description: in vivo
observable: half-life (min)
Respond with the bare value in min.

Entry CC(C)(O)c1csc(S(=O)(=O)NC(=O)Nc2c(-c3cccc(Cl)c3Cl)ccc3c2CCC3)c1 , half-life reported as 154
